- Tested on: human PBMCs
- ASSAY PROTOCOL: Human PBMC cytokine response assay (IFN-γ and IFN-α in cell-free medium by ELISA), with or without cPLGA
- Assay type: cell-based
- MEASUREMENT PARAMETERS: donor 110; Table 14
MEASURE NAME: IFN-γ (pg/mL)
Report only the number, with the unit pg/mL understood.

>>> result("5′-CGTTCGA-3′-HEG-5′-CGTTCGA-3′-HEG-5′-CGTTCGA-3′ [Compound C-52]")
472
>>> result("5′-TCGAGAT-3′-HEG-5′-TCGAGAT-3′-HEG-5′-TCGAGAT-3′ [Compound C-45]")
880
>>> result("5′-AGATGAT-3′-HEG-5′-TCGTCGA-3′-HEG-5′-ACGTTCG-3′ [Compound C-59]")
256
>>> result("5′-TCGACTC-3′-HEG-5′-TCGAGCG-3′-HEG-5′-TTCTCTT-3′ [Compound C-63]")
1536
>>> result("5′-TCGACGT-3′-HEG-5′-TCGACGT-3′-HEG-5′-TCGACGT-3′ [Compound C-51]")
1528
>>> result("5′-TCGTCG-3′-HEG-5′-TCGA-3′ [Compound C-40]")
180

Tested on human PBMCs: 5′-TTCGTTT-3′-HEG-5′-TTCGTTT-3′-HEG-5′-TTCGTTT-3′ [Compound C-46] . Observed IFN-γ: 1224

human PBMCs data for 5′-TCGTCGA-3′-HEG-5′-TCGTCGA-3′ [Compound C-39] ; its IFN-γ: 604

Bench note, human PBMCs: 5′-TCGAACG-3′-HEG-5′-TCGAACG-3′-HEG-5′-TCGAACG-3′ [Compound C-50] , IFN-γ reads 1096

Values were extracted from patent US9028845B2.
